Where these numbers come from: ChEMBL document CHEMBL1201862

# Assayed system: Streptokinase A (Streptococcus pyogenes serotype M1, UniProt P10520)
# Sequence (P10520 whole entry): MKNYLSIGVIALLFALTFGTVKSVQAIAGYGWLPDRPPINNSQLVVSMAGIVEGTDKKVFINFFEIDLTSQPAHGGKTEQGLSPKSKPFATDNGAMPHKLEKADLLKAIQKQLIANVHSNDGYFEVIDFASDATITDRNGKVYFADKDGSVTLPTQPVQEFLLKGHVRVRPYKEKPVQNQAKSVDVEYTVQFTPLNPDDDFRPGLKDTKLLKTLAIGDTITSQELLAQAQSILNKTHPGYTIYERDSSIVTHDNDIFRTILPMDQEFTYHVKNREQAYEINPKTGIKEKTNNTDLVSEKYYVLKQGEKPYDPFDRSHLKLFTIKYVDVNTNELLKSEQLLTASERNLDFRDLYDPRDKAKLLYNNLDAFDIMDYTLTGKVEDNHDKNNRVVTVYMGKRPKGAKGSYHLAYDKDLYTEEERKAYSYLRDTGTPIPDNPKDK
# Assay protocol: viability-normalized secreted streptokinase activity reduction – plasminogen activation absorbance, OD405, dose response (AID 1914);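 note: secreted streptokinase activity via plasminogen activation per viability signal from cell pellet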
# Format: functional, Streptococcus pyogenes M1 GAS
The source made the active and inactive calls. Cut-off read from the data, not from the text of the source: actives have a measured EC50 and inactives only a lower limit.
Measurement label: EC50

Cc1cccc(/C=N/NC(=O)c2ccccc2OCc2cccc(Br)c2)n1: 16.1 µM (active)
O=C1c2ccccc2C2=Nc3ccccc3SC(c3ccc(Cl)cc3)C12 (configuration not stated): > 150 µM (not active)
CC1Oc2cc3oc4c(O)c5c(cc4c(=O)c3c(O)c2C1(C)C)C=CC(C)(C)O5 (configuration not stated): 10.7 µM (active)
Cc1csc(Nc2ccc(Cl)cc2)[n+]1-c1ccc(Cl)cc1: 29.9 µM (active)
COc1ccc2oc(C(=O)OCC(=O)NC3(C#N)CCCC3)c(C)c2c1: > 150 µM (not active)

The recorded EC50 for entry CCOc1ccc(/C=N/NC(=S)NC2CC3C=CC2C3)cc1 (configuration not stated) equals > 150 µM (not active)

The recorded EC50 for entry CCCCCNC(=O)c1ccc2c(=O)[nH]c3c(C(=O)NCC4CCCO4)sc(=S)n3c2c1 (configuration not stated) equals 21.1 µM (inconclusive)
